# ASSAY_NAME: In vitro cytotoxicity, MTT assay
# Assay type: cell-based
# CONDITION: cattle (MDBK), African green monkey (Vero), human (HFF)
MEASURED_ENDPOINT: CC50 at 24 h

MOLECULE | MEASURED_ENDPOINT | ASSAY_VALUE
CO[C@H]1C(OP(=O)(S)OC[C@H]2O[C@@H](n3cnc4c(N)ncnc43)CC2O)[C@@H](CO)O[C@H]1n1ccc(=O)[nH]c1=O (stereo partly shown) | CC50 at 24 h | > 1000 µM

###

# ASSAY_NAME: Cytotoxicity by neutral red dye uptake in HCV replicon cultures
# Type: cell-based
# CONDITION: human, AVA5 HCV replicon cell line (sub-genomic CON1, genotype 1b); parallel plates, 3-day assay; read-out: CC50, neutral red dye uptake

MOLECULE | CC50 at 3 day
CO[C@H]1C(OP(=O)(OC[C@H]2O[C@@H](n3cnc4c(N)ncnc43)CC2O)SCOC(=O)OC(C)C)[C@@H](CO)O[C@H]1n1ccc(=O)[nH]c1=O (stereo partly shown) [Compound 6k] | > 100 µM

###

# Tested on: HCV
# ASSAY_NAME: Combination studies against HCV in replicon assays
# Format: cell-based
# CONDITION: Hepatitis C virus; monotherapy; read-out: EC50 (uM), single drug
MEASURED_ENDPOINT: EC50 (µM)

COMPOUND | MEASURED_ENDPOINT | UNITS_TEXT | LIMIT_SIGN | ASSAY_VALUE
NC(=O)c1ncn([C@@H]2O[C@H](CO)[C@@H](O)[C@H]2O)n1 [Ribavirin] | EC50 | µM | > | 30
CCC[C@H](NC(=O)[C@@H]1[C@H]2CCC[C@H]2CN1C(=O)[C@@H](NC(=O)[C@@H](NC(=O)c1cnccn1)C1CCCCC1)C(C)(C)C)C(=O)C(=O)NC1CC1 [Vertex (telaprevir), telaprevir, reference compound] | EC50 | µM | = | 0.25
CC(C)[C@H](N)C(=O)O[C@@H]1[C@@H](CO)O[C@@H](n2ccc(N)nc2=O)[C@]1(C)O [2C MeCyt (NM 283)] | EC50 | µM | = | 1.4

###

# Test system: HCV
# ASSAY_NAME: Combination studies against HCV in replicon assays
# Assay type: cell-based
# CONDITION: Hepatitis C virus, read-out: EC50 (uM), single drug
MEASURED_ENDPOINT: EC50

MOLECULE | ASSAY_SYSTEM | ASSAY_VALUE
CO[C@H]1C(OP(=O)(OC[C@H]2O[C@@H](n3cnc4c(N)ncnc43)CC2O)SCOC(=O)OC(C)C)[C@@H](CO)O[C@H]1n1ccc(=O)[nH]c1=O (stereo partly shown) [Compound 6k] | HCV | 1.5 to 2.3 µM

###

# ASSAY_NAME: In vitro cytotoxicity, MTT assay
# Format: cell-based
# CONDITION: cattle (MDBK), African green monkey (Vero), human (HFF); MTT, 24-hour incubation, tested at 100, 300, and 1000 μM; read-out: CC50

MOLECULE | CC50 at 24 h
CO[C@H]1C(OP(=O)(OC[C@H]2O[C@@H](n3cnc4c(N)ncnc43)CC2O)SCOC(=O)OC(C)C)[C@@H](CO)O[C@H]1n1ccc(=O)[nH]c1=O (stereo partly shown) [Compound 6k] | > 1000 µM

meta.source: patent US20150329864A1
